Data credit: PubChem BioAssay AID431

Assay Summary: viability loss of HPDE-C7K cells – cell-based, fluorescence, HTS, primary screen (AID 431);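 note: 0% = DMSO solvent wells and 100% = doxorubicin-treated wells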
Condition Description: HPDE-C7K KRASV12 cells, Alamar Blue viability, 48 h; at 10 µM; hits give high values
Out of some 63,000 compounds screened, about 1,100 (1.7%) were called active. The entries come from a sample that favours actives as a whole. Results with a measured potency or affinity are listed apart.
Threshold check on cytotoxicity: strictly below 20% is 1; on or above 20% is 0.

// known answers, use as guide
| Compound | Discrete Label |
| --- | --- |
| COc1cc(-c2c(C#N)c(N)nc3c2CCCC3)ccc1O | 1 |
| Cc1ccc(SC(C)C(=O)NCC(C)C)cc1 (stereo not given) | 1 |
| CCCCNc1ncnc2c1cnn2-c1ccc(Cl)cc1 | 0 |

Please look at the following compound next.
Prompt line: Is cytotoxicity strictly under 20% for the entry `Cc1cccc(-n2ncc3c(NCc4ccco4)ncnc32)c1` ?
Response line: 0
